All figures here come from patent US20130324522A1.

Molecular target: TRP channel (TRPM8) (Mus musculus)
Construct: Full-length cDNAs for mosquito (Anopheles gambiae) odorant receptor (OR1, OR2, OR7, OR8, OR28), and fly (Drosophila melanogaster) odorant receptor (Or47a, Or83b), mouse TRP channel (TRPM8); expressed in transfected cells
Sequence (Q8R4D5 whole entry): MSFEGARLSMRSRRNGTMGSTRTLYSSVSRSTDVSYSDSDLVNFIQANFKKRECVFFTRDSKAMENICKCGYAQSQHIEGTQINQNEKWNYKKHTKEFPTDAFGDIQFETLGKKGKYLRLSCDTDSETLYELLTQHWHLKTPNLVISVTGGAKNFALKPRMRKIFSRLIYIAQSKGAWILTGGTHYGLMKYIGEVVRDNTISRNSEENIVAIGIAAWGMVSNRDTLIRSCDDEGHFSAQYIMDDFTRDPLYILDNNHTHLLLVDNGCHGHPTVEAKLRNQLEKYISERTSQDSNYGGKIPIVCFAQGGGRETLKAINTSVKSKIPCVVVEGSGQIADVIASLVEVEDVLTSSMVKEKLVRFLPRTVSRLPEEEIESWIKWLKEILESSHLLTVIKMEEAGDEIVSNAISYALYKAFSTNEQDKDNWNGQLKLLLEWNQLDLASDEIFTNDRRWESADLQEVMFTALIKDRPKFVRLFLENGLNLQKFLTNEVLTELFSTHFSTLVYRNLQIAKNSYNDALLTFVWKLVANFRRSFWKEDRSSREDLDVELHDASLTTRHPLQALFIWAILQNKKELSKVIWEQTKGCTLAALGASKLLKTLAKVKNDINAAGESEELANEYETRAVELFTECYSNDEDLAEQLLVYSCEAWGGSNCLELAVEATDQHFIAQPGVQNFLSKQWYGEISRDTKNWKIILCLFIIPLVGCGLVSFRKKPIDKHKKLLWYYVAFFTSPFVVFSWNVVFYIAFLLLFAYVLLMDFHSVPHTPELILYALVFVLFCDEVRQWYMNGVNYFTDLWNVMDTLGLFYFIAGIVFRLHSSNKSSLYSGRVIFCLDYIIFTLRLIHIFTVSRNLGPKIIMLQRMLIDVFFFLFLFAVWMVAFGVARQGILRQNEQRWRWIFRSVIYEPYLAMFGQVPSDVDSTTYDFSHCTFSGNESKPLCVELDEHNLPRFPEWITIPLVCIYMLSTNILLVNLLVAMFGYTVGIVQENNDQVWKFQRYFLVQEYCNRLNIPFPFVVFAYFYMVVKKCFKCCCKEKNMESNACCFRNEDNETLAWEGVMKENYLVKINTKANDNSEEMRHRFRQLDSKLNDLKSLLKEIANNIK
Test: Ca2+-imaging of stable HEK293T cell line TRPM8
Assay type: cell-based
Details: HEK-293T; compound applied at 4 μM; read-out: Percent Inhibition TRPM8
reported_endpoint: inhibition at 4 µM

[[record]]
compound = "COc1ccc(OCC(=O)N2CCOC(Cc3ccccc3)C2)cc1 (centres unmarked) [RU-0050384]"
observed_result = "< 25%"

[[record]]
compound = "O=C(c1c(F)c(F)cc(F)c1F)N1CCOC(Cc2ccccc2)C1 (centres unmarked) [RU-0050393]"
observed_result = "< 25%"

[[record]]
compound = "CCn1c(C)c(C(=O)CN(CC2CCCO2)C(=O)C2C[C@H]2c2ccccc2)c(C)c1C(=O)OC (some centres unmarked) [RU-0071273]"
observed_result = "< 25%"

[[record]]
compound = "C=CCOc1cccc(C(=O)N2CCCC(C(=O)c3ccccc3OC)C2)c1 (centres unmarked) [RU-0029409]"
observed_result = "26 to 50%"

[[record]]
compound = "COCCN(Cc1c(-c2ccccc2)noc1N1CCSCC1)CC(O)COCc1ccco1 (centres unmarked) [RU-0037278]"
observed_result = "< 25%"

